biological target: C5a anaphylatoxin chemotactic receptor 1 (Homo sapiens) (UniProt P21730); experiment: Pharmacological activity against C5a receptor in human fetal artery
Sequence (P21730 whole entry): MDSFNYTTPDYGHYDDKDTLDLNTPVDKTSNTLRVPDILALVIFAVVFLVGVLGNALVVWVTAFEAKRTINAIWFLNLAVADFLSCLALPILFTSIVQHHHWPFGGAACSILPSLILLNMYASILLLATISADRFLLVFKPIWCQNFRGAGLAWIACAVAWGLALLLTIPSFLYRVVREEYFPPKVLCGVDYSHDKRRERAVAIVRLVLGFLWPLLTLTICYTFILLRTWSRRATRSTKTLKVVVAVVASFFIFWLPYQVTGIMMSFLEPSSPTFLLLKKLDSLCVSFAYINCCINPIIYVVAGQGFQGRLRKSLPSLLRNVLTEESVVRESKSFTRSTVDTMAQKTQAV

{"columns": ["substance", "target.of.assay", "pD2"],
 "data": [
  ["H-YSFKDMPPGR-OH", "C5a anaphylatoxin chemotactic receptor 1 (Homo sapiens) (UniProt P21730)", 4.68],
  ["H-YSFKGMPLGR-OH", "C5a anaphylatoxin chemotactic receptor 1 (Homo sapiens) (UniProt P21730)", 6.23],
  ["H-YSFKDCPLGR-OH", "C5a anaphylatoxin chemotactic receptor 1 (Homo sapiens) (UniProt P21730)", 5.79],
  ["H-YSFKDMQLGR-OH", "C5a anaphylatoxin chemotactic receptor 1 (Homo sapiens) (UniProt P21730)", 5.05],
  ["H-YSFKDMQPGR-OH", "C5a anaphylatoxin chemotactic receptor 1 (Homo sapiens) (UniProt P21730)", 4.4],
  ["H-YSFKGLLLGR-OH", "C5a anaphylatoxin chemotactic receptor 1 (Homo sapiens) (UniProt P21730)", 5.21]
]}

###

species: Homo sapiens; assay: Effective dose required for smooth muscle contraction in human fetal artery; format: functional; settings: Muscle tissue
pEC50: −log10 of the molar value.
# maps each entry to its pEC50

{"columns": ["substance", "pEC50"],
 "data": [
  ["H-YSFKDMQPGR-OH", 4.32],
  ["H-YSFKDMQLGR-OH", 4.95],
  ["H-YSFKDMPPGR-OH", 4.60],
  ["H-YSFKDCPLGR-OH", 5.69],
  ["H-YSFKGLLLGR-OH", 5.18],
  ["H-YSFKGMPLGR-OH", 6.23]
]}

Cited source for all entries: ChEMBL document CHEMBL1127469
